max response values by entry
Test: qHTS Assay for Lipid Storage Modulators (AID 1519)
Conditions: Drosophila S3 cells, BODIPY lipid droplet/cell ratio, laser cytometry; measured here: lipid channel max response; cells loaded with oleic acid
Inconclusive results are not listed.
measurement.label: max response (%)

INSERT INTO measurements (compound, quantity_unit, recorded_result) VALUES
  ('O=C1c2ccccc2-c2cccc3cccc1c23', '%', 28.5),
  ('CN1C2CC(OC(=O)C(CO)c3ccccc3)C[C@@H]1[C@H]1OC21 (some centres undefined)', '%', 25.6),
  ('C=C1[C@@H]2CC[C@H]3[C@@]4(C)C[C@@H](O[C@@H]5O[C@H](CO)[C@H](OS(=O)(=O)O)[C@@H](OS(=O)(=O)O)[C@@H]5OC(=O)CC(C)C)C[C@@H](C(=O)O)[C@H]4CC[C@@]3(C2)[C@H]1O', '%', -28.9),
  ('C[C@]1(C(=O)O)CCC[C@]2(C)c3cc(O)ccc3CC[C@@H]12', '%', -24.8),
  ('CC(C)NC(=O)N1CC[C@@]2(CCCNC2)C1', '%', 18.1),
  ('O=c1ccc2cc(OC3OC(CO)C(O)C(O)C3O)c(O)cc2o1 (centres undefined)', '%', -27.2),
  ('Oc1ccc2c3c1OC1C(O)CC[C@]4(O)C(C2)N(CC2CCC2)CC[C@]314 (some centres undefined)', '%', 9.11),
  ('NC[C@H](O)c1ccc(O)cc1', '%', 3.81),
  ('CC1O[C@@H](OC2CC[C@@]3(C=O)C4CC[C@]5(C)C(C6=CC(=O)OC6)CC[C@@]5(O)C4CC[C@]3(O)C2)C(O)C(O)C1O (some centres undefined)', '%', 4.22);

Hello, the source for this data is PubChem BioAssay (NCATS), in case you need it.
